I'd be grateful if you could share measured protein stability index for these entries.
B1: LARP4 (parent)
chain: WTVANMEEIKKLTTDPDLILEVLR

- Variants of: B1
- runDescription: protein stability index of a GFP-peptide fusion (GPS, HEK-293T) (PSI 1-6); higher = more stable;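 note: lentivirally expressed fusions sorted by FACS into six bins by GFP to DsRed ratio, PSI derived from sequencing read proportions per bin multiplied by bin number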
- particulars: c terminus: a fixed tail appended
Just the number, please, no unit after it.

Can you share its protein stability index? I mean this variant: WTVPNMEEIKKLTTDPDLILEVLR [A4P]
2.05

Now this one: WTVANNEEIKKLTTDPDLILEVLR [M6N]
2.67

Thanks! And WTVANMEEIKKLTNDPDLILEVLR [T14N] ?
2.52

Moving on to WTVANMEEINKLTTDPDLILEVLR [K10N]
2.13

Do the same for WTVANMEEIRKLTTDPDLILEVLR [K10R] please
2.52

Then WTVANMEEIKKLTTPPDLILEVLR [D15P] ?
1.97

Similarly, WTVANMEEMKKLTTDPDLILEVLR [I9M] ?
2.3

What about WTVANMEEIKKLTTDPDLILEVLA [R24A] ?
2.12

Same read-out for WTVANMEEIKKLGTDPDLILEVLR [T13G] ?
2.23

Now this one: WTVANMEEIKKLTTDPDLILEVKR [L23K]
3.28

Entry WTVANMEEIKKLKTDPDLILEVLR [T13K] please
2.02

And what about the variant WTVANMEERKKLTTDPDLILEVLR [I9R] ?
2.5

What would you report for WTVANMEEIKKLTTDPDLILPVLR [E21P] ?
1.98

Same thing, different variant: WTVANMEEIKKLTTDPDLIHEVLR [L20H]
2.64

Subsequent entry: WTVANMEEIKKLTWDPDLILEVLR [T14W]
1.75

Entry WCVANMEEIKKLTTDPDLILEVLR [T2C] please
2.02

Next variant: WTVANMEEVKKLTTDPDLILEVLR [I9V]
2.72

Would you kindly repeat that for WRVANMEEIKKLTTDPDLILEVLR [T2R] ?
2.59

Same read-out for WTVANMEEIKKLTTDRDLILEVLR [P16R] ?
2.25

Moving on to the next variant: WTVANMEEIKKKTTDPDLILEVLR [L12K]
2.62

Also need WTVANMEEIKKLTTDPWLILEVLR [D17W] , thanks.
1.49

For WTVANMEEIKKLTTDPDLILMVLR [E21M] then?
2.08
